Test: in vivo
Test Settings: human, 5 mg/kg
Endpoint: Cmax (ng/mL)
Give the value in ng/mL but do not write ng/mL after it.

Exam item: Entry CCC(C)n1ncn(-c2ccc(N3CCN(c4ccc(OCC5COC(Cn6cncn6)(c6ccc(Cl)cc6Cl)O5)cc4)CC3)cc2)c1=O (stereo not shown) : reported Cmax = ?
Marked response: 3550

---

Test: in vivo
Test Settings: human, po, 10 mg/kg
Endpoint: Cmax
Respond with the figure and its unit, in that order.

Exam item: // returns reported Cmax for input CCC(C)n1ncn(-c2ccc(N3CCN(c4ccc(OCC5COC(Cn6cncn6)(c6ccc(Cl)cc6Cl)O5)cc4)CC3)cc2)c1=O (stereo not shown)
Marked response: 13500 ng/mL
